System: MS2 coat protein
Assay: apparent KD of MS2 coat protein; designed switch direction (-1 OFF switch, 1 ON switch): -1; higher = weaker reporter binding
Conditions: input ligand: none
Please enter Y where apparent KD of MS2 coat protein is greater than or equal to 70 nM, and N where it is lower.

RESIDUE CODES | CLASS ASSIGNMENT
GAUUAAUUAAUUAAUUAAUACAUGAGGAUCACCCAUGUAAUUUAAGAUCCUUAUACAAGCUUUGAUCUCGUAAUUAA [Stov1/4-A3] (Eterna round: R97, puzzle: Sensor, turn-off variant 1) | Y
UGCUACAUGAGGAUCACCCAUGUUAUUUGGGAUUUUUUAGGACAGGAUAUGAUUGUAUUGUUUUUUCAGAAGGGUCAUUACUUU [JR_ExcNG3_Sub013] (Eterna round: R96, puzzle: Exclusion NG 3) | Y
AAAUAACAAGCGAGAUCCUACAUGAGGAUCACCCAUGUGCUCGUCUUAAUAAGUACUAUCACGAAAGUGAUAGUACA [Mat - Sensor v3 - turn-off var 1 - Eli Mod - D67] (Eterna round: R96, puzzle: Sensor v3, turn-off variant 1) | N
AGAUGUUAUAAGGAUAUGCAGGCCAUCGCAUCAGCAGAAGGUGUAACAUGAGGAUCACCCAUGUAAACGAACUG [Eternabot (L1) Solution 44] (Eterna round: R97, puzzle: Exclusion 6) | N
UUUUUACAUGAGGAUCACCCAUGUCAGGAUAUCAUUAUAUUUUAUUAUUUUAUUUAUAUGAGAAGGGACUAUUA [My solution] (Eterna round: R96, puzzle: Exclusion 1) | Y
AGAAGUGCCGAGGAUAUCCAGGCAAUCUCGUUCGGAGAAGGCGGCACUUGAGGAUCACCCAAGUGCUCCUAAGA [Islariat] (Eterna round: R97, puzzle: Exclusion 6) | N
UCCCACCGAGGAUAUGACCAUCAGAACAUGAGGAUCACCCAUGUAUUUCUAUGUUCAGAGUCAGAAGGCGGUUUAU [Eternabot (L2) Solution 20] (Eterna round: R97, puzzle: Exclusion 5) | Y
AACAUGGCAGGAUAUUGAAAAUUGCACUUGAGGAUCACCCAAGUGGUUCUGCGGGCGAAGUAAGAAGGGCCUAAAA [Xeraabi] (Eterna round: R97, puzzle: Exclusion 5) | N
AACCUGAGGCAAAGCUUUAGGUGUACAUGAGGAUCACCCAUGUAGGAUAUGGUAGGCUUUGCUUACCAGAAGGACAUAAUGAUG [Mat - Exclusion NG 3 - Mod of JL - D46] (Eterna round: R96, puzzle: Exclusion NG 3) | N

Data provenance is the supplement of paper PMC9170038.
